# Tested on: Staphylococcus aureus UC 1128
# assay_overview: serial dilution liquid medium MIC, Staphylococcus aureus UC 1128 pen-resistant
# Assay type: cell-based
# setup_conditions: UC1128; Staphylococcus aureus UC 1128 pen-resistant; 24 hours at 37° C.; read-out: minimum inhibiting concentration (MIC)
Here, each record is paired with measured MIC data.
measured_endpoint: MIC (µg/mL)

molecule | tgt | observed
CC[C@H]1OC(=O)[C@H](C)[C@@H](O[C@H]2C[C@@](C)(OC)[C@@H](O)[C@H](C)O2)[C@H](C)[C@@H](O[C@@H]2O[C@H](C)C[C@H](N(C)C)[C@H]2O)[C@](C)(O)C[C@@H](C)C(=NOC(C)CN(CC)CC)[C@H](C)[C@@H](O)[C@]1(C)O (some centres unmarked) [Example 46] | Staphylococcus aureus UC 1128 | 0.6
CC[C@H]1OC(=O)[C@H](C)[C@@H](O[C@H]2C[C@@](C)(OC)[C@@H](O)[C@H](C)O2)[C@H](C)[C@@H](O[C@@H]2O[C@H](C)C[C@H](N(C)C)[C@H]2O)[C@](C)(O)C[C@@H](C)C(=NOCCN(C(C)C)C(C)C)[C@H](C)[C@@H](O)[C@]1(C)O [Example 41] | Staphylococcus aureus UC 1128 | 1
CC[C@H]1OC(=O)[C@H](C)[C@@H](O[C@H]2C[C@@](C)(OC)[C@@H](O)[C@H](C)O2)[C@H](C)[C@@H](O[C@@H]2O[C@H](C)C[C@H](N(C)C)[C@H]2O)[C@](C)(O)C[C@@H](C)C(=NOCCN)[C@H](C)[C@@H](O)[C@]1(C)O [Example 45] | Staphylococcus aureus UC 1128 | 1
CC[C@H]1OC(=O)[C@H](C)[C@@H](O[C@H]2C[C@@](C)(OC)[C@@H](O)[C@H](C)O2)[C@H](C)[C@@H](O[C@@H]2O[C@H](C)C[C@H](N(C)C)[C@H]2O)[C@](C)(O)C[C@@H](C)C(=NOCOCCCl)[C@H](C)[C@@H](O)[C@]1(C)O [Example 21] | Staphylococcus aureus UC 1128 | 0.2
CC[C@H]1OC(=O)[C@H](C)[C@@H](O[C@H]2C[C@@](C)(OC)[C@@H](O)[C@H](C)O2)[C@H](C)[C@@H](O[C@@H]2O[C@H](C)C[C@H](N(C)C)[C@H]2O)[C@](C)(O)C[C@@H](C)C(=NOCCN2CCN(C)CC2)[C@H](C)[C@@H](O)[C@]1(C)O [Example 43] | Staphylococcus aureus UC 1128 | 2
CC[C@H]1OC(=O)[C@H](C)[C@@H](O[C@H]2C[C@@](C)(OC)[C@@H](O)[C@H](C)O2)[C@H](C)[C@@H](O[C@@H]2O[C@H](C)C[C@H](N(C)C)[C@H]2O)[C@](C)(O)C[C@@H](C)C(=NOCOCCN2CCOCC2)[C@H](C)[C@@H](O)[C@]1(C)O [Example 26] | Staphylococcus aureus UC 1128 | 0.1
CC[C@H]1OC(=O)[C@H](C)[C@@H](O[C@H]2C[C@@](C)(OC)[C@@H](O)[C@H](C)O2)[C@H](C)[C@@H](O[C@@H]2O[C@H](C)C[C@H](N(C)C)[C@H]2O)[C@](C)(O)C[C@@H](C)C(=NOCCN2CCOCC2)[C@H](C)[C@@H](O)[C@]1(C)O [Example 35] | Staphylococcus aureus UC 1128 | 1
CC[C@H]1OC(=O)[C@H](C)[C@@H](O[C@H]2C[C@@](C)(OC)[C@@H](O)[C@H](C)O2)[C@H](C)[C@@H](O[C@@H]2O[C@H](C)C[C@H](N(C)C)[C@H]2O)[C@](C)(O)C[C@@H](C)C(=NOCC2CO2)[C@H](C)[C@@H](O)[C@]1(C)O (some centres unmarked) [Example 47] | Staphylococcus aureus UC 1128 | 0.4
CC[C@H]1OC(=O)[C@H](C)[C@@H](O[C@H]2C[C@@](C)(OC)[C@@H](O)[C@H](C)O2)[C@H](C)[C@@H](O[C@@H]2O[C@H](C)C[C@H](N(C)C)[C@H]2O)[C@](C)(O)C[C@@H](C)C(=NOCOC)[C@H](C)[C@@H](O)[C@]1(C)O [Example 33] | Staphylococcus aureus UC 1128 | 0.4
CC[C@H]1OC(=O)[C@H](C)[C@@H](O[C@H]2C[C@@](C)(OC)[C@@H](O)[C@H](C)O2)[C@H](C)[C@@H](O[C@@H]2O[C@H](C)C[C@H](N(C)C)[C@H]2O)[C@](C)(O)C[C@@H](C)C(=NOCCN(C)C)[C@H](C)[C@@H](O)[C@]1(C)O [Example 5] | Staphylococcus aureus UC 1128 | 1
CC[C@H]1OC(=O)[C@H](C)[C@@H](O[C@H]2C[C@@](C)(OC)[C@@H](O)[C@H](C)O2)[C@H](C)[C@@H](O[C@@H]2O[C@H](C)C[C@H](N(C)C)[C@H]2O)[C@](C)(O)C[C@@H](C)C(=NOCOCCNC)[C@H](C)[C@@H](O)[C@]1(C)O [Example 25] | Staphylococcus aureus UC 1128 | 0.5
CCOCCON=C1[C@H](C)C[C@@](C)(O)[C@H](O[C@@H]2O[C@H](C)C[C@H](N(C)C)[C@H]2O)[C@@H](C)[C@H](O[C@H]2C[C@@](C)(OC)[C@@H](O)[C@H](C)O2)[C@@H](C)C(=O)O[C@H](CC)[C@@](C)(O)[C@H](O)[C@H]1C [Example 3] | Staphylococcus aureus UC 1128 | 1
CC[C@H]1OC(=O)[C@H](C)[C@@H](O[C@H]2C[C@@](C)(OC)[C@@H](O)[C@H](C)O2)[C@H](C)[C@@H](O[C@@H]2O[C@H](C)C[C@H](N(C)C)[C@H]2O)[C@](C)(O)C[C@@H](C)C(=NOCC(OC)OC)[C@H](C)[C@@H](O)[C@]1(C)O [Example 29] | Staphylococcus aureus UC 1128 | 1
CC[C@H]1OC(=O)[C@H](C)[C@@H](O[C@H]2C[C@@](C)(OC)[C@@H](O)[C@H](C)O2)[C@H](C)[C@@H](O[C@@H]2O[C@H](C)C[C@H](N(C)C)[C@H]2O)[C@](C)(O)C[C@@H](C)C(=NOCC(O)CN(C)C)[C@H](C)[C@@H](O)[C@]1(C)O (some centres unmarked) [Example 48] | Staphylococcus aureus UC 1128 | 0.6
